Hello, the source for this data is patent US8334267B2, in case you need it.

Assay: Pharmacokinetics of mangiferin and mangiferin calcium after oral administration
Assay type: in vivo, rats
Settings: rat, in vivo, po, 100 mg/kg
readout: AUC(0-inf)
# output: number + unit

*Q* Report measured AUC(0-inf); entry is O=c1c2cc(O)c(O)cc2oc2cc(O)c(C3OC(CO)C(O)C(O)C3O)c(O)c12 (stereo not shown)
*A* 31100 ng·h/mL
